molecular target: ZAP-S (short isoform of zinc-finger antiviral protein) (human, UniProt Q7Z2W4-2 1-699); experiment: MST; 5 mM Mg2+; conditions: protein: recombinant; tags: N-terminal 6xHis-SUMO; label: 3' pCp-Cy5; two consecutive stem-loops
Sequence (Q7Z2W4 other isoform, or with tags, fused parts or gaps): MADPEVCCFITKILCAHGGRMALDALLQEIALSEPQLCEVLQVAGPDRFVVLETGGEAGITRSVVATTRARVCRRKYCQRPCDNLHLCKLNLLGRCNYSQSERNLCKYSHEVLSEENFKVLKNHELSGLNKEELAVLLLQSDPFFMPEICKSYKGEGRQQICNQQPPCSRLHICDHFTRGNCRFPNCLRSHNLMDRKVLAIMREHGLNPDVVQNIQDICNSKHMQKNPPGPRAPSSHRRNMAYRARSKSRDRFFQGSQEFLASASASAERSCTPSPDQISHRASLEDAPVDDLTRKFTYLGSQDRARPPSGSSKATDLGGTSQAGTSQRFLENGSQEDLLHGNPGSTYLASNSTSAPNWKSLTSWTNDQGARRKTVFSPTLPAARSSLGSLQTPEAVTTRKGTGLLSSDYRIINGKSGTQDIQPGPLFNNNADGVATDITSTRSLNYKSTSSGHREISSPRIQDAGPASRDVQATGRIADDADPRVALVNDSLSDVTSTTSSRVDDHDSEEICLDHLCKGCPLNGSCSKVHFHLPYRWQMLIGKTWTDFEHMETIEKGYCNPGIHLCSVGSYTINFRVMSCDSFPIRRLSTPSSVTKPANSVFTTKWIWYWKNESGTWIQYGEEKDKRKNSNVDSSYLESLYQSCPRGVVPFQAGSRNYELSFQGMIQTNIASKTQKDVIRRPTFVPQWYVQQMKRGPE
endpoint: pKd
Note on pKd: it is the negative log10 of concentration, concentration in mol/L.

Exercise: Quick one: pKd of dSL2 mutant (structured_RNA) RNA: UCGUUUUUAAACGGGUUUGCGGUGUAAGUGCAGCCCGUCUUACACCGUGCGGCACAGGCACUAGUACUGAUGUCGU ?
Key: 6.17
